src = patent US8802661B2

system: recombinant NL4-3 virus (Renilla luciferase in nef, Gag P373S); test: HIV Cell Culture Assay (luciferase reporter virus in MT-2 cells); assay type: cell-based; conditions: NL43, read-out: EC50 Group

MOLECULE	EC50
C=C(C)[C@@H]1CC[C@]2(C(=O)N[C@@H](CN(C)C)C(=O)O)CC[C@]3(C)[C@H](CC[C@@H]4[C@@]5(C)CC=C(c6ccc(C(=O)O)cc6)C(C)(C)[C@@H]5CC[C@]43C)[C@@H]12	< 100 nM
C=C(C)[C@@H]1CC[C@]2(C(=O)NCCCN(CCC(=O)O)CCC(=O)O)CC[C@]3(C)[C@H](CC[C@@H]4[C@@]5(C)CC=C(c6ccc(C(=O)O)cc6)C(C)(C)[C@@H]5CC[C@]43C)[C@@H]12	> 100 nM
C=C(C)[C@@H]1CC[C@]2(C(=O)NC(C)c3nnc(C)[nH]3)CC[C@]3(C)[C@H](CC[C@@H]4[C@@]5(C)CC=C(c6ccc(C(=O)O)cc6)C(C)(C)[C@@H]5CC[C@]43C)[C@@H]12 (stereo partly shown)	< 100 nM
C=C(C)[C@@H]1CC[C@]2(C(=O)NCCc3cccnc3)CC[C@]3(C)[C@H](CC[C@@H]4[C@@]5(C)CC=C(c6ccc(C(=O)O)cc6)C(C)(C)[C@@H]5CC[C@]43C)[C@@H]12	< 100 nM

###

tested on: recombinant NL4-3 virus (Renilla luciferase in nef, Gag P373S); test: HIV Cell Culture Assay (luciferase reporter virus in MT-2 cells); assay type: cell-based; details: NL43, read-out: EC50 Group
Form field: EC50 (one value per entry).
MEASURE: EC50

SMILES STRING	MEASURED RESULT
C=C(C)[C@@H]1CC[C@]2(C(=O)NCCN(C)C)CC[C@]3(C)[C@H](CC[C@@H]4[C@@]5(C)CC=C(c6ccc(C(=O)O)cc6)C(C)(C)[C@@H]5CC[C@]43C)[C@@H]12	< 100 nM
C=C(C)[C@@H]1CC[C@]2(C(=O)NCCN3CCOCC3)CC[C@]3(C)[C@H](CC[C@@H]4[C@@]5(C)CC=C(c6ccc(C(=O)O)cc6)C(C)(C)[C@@H]5CC[C@]43C)[C@@H]12	< 100 nM
C=C(C)[C@@H]1CC[C@]2(C(=O)NC3(c4ccccn4)CC3)CC[C@]3(C)[C@H](CC[C@@H]4[C@@]5(C)CC=C(c6ccc(C(=O)O)cc6)C(C)(C)[C@@H]5CC[C@]43C)[C@@H]12	< 100 nM
C=C(C)[C@@H]1CC[C@]2(C(=O)NCCc3ccccn3)CC[C@]3(C)[C@H](CC[C@@H]4[C@@]5(C)CC=C(c6ccc(C(=O)OC)cc6)C(C)(C)[C@@H]5CC[C@]43C)[C@@H]12	> 100 nM

###

test system: recombinant NL4-3 virus (Renilla luciferase in nef, Gag P373S); test: HIV Cell Culture Assay (luciferase reporter virus in MT-2 cells); assay type: cell-based; conditions: NL43, read-out: EC50 Group
Form field: EC50 (one value per entry).
MEASURE: EC50

SMILES STRING	MEASURED RESULT
CC1(C)CC[C@]2(C(=O)NCCCN3CCS(=O)(=O)CC3)CC[C@]3(C)C(=CC[C@@H]4[C@@]5(C)CC=C(c6ccc(C(=O)O)cc6)C(C)(C)[C@@H]5CC[C@]43C)[C@@H]2C1	< 100 nM
C=C(C)[C@@H]1CC[C@]2(C(=O)N[C@@H](CC(C)C)C(=O)O)CC[C@]3(C)[C@H](CC[C@@H]4[C@@]5(C)CC=C(c6ccc(C(=O)O)cc6)C(C)(C)[C@@H]5CC[C@]43C)[C@@H]12	< 100 nM
C[C@H]1[C@H](C)CC[C@]2(C(=O)NCCCN3CCS(=O)(=O)CC3)CC[C@]3(C)C(=CC[C@@H]4[C@@]5(C)CC=C(c6ccc(C(=O)O)cc6)C(C)(C)[C@@H]5CC[C@]43C)[C@H]12	< 100 nM

###

tested on: recombinant NL4-3 virus (Renilla luciferase in nef, Gag P373S); assay: HIV Cell Culture Assay (luciferase reporter virus in MT-2 cells); format: cell-based; conditions: NL43, read-out: EC50 Group

MOLECULE	EC50
C=C(C)[C@@H]1CC[C@]2(C(=O)NCCN3CCC(F)(F)CC3)CC[C@]3(C)[C@H](CC[C@@H]4[C@@]5(C)CC=C(c6ccc(C(=O)O)cc6F)C(C)(C)[C@@H]5CC[C@]43C)[C@@H]12 [Example 119]	< 100 nM
C=C(C)[C@@H]1CC[C@]2(C(=O)NCC(O)CN)CC[C@]3(C)[C@H](CC[C@@H]4[C@@]5(C)CC=C(c6ccc(C(=O)O)cc6)C(C)(C)[C@@H]5CC[C@]43C)[C@@H]12 (stereo partly drawn) [Example 64]	< 100 nM
C=C(C)[C@@H]1CC[C@]2(C(=O)NCCC(C)C)CC[C@]3(C)[C@H](CC[C@@H]4[C@@]5(C)CC=C(c6ccc(C(=O)O)cc6)C(C)(C)[C@@H]5CC[C@]43C)[C@@H]12 [Example 129]	< 100 nM
C=C(C)[C@@H]1CC[C@]2(C(=O)N3CCC(O)CC3)CC[C@]3(C)[C@H](CC[C@@H]4[C@@]5(C)CC=C(c6ccc(C(=O)OC)cc6)C(C)(C)[C@@H]5CC[C@]43C)[C@@H]12 [Example 21]	> 100 nM
C=C(C)[C@@H]1CC[C@]2(C(=O)NS(=O)(=O)N(C)C)CC[C@]3(C)[C@H](CC[C@@H]4[C@@]5(C)CC=C(c6ccc(C(=O)O)cc6)C(C)(C)[C@@H]5CC[C@]43C)[C@@H]12 [Example 7]	< 100 nM
C=C(C)[C@@H]1CC[C@]2(C(=O)NCCNCCS(=O)(=O)O)CC[C@]3(C)[C@H](CC[C@@H]4[C@@]5(C)CC=C(c6ccc(C(=O)O)cc6)C(C)(C)[C@@H]5CC[C@]43C)[C@@H]12 [Example 92]	< 100 nM
C=C(C)[C@@H]1CC[C@]2(C(=O)NCCN(C)C)CC[C@]3(C)[C@H](CC[C@@H]4[C@@]5(C)CC=C(c6ccc(C(=O)O)c(C(=O)O)c6)C(C)(C)[C@@H]5CC[C@]43C)[C@@H]12 [Example 113]	> 100 nM
C=C(C)[C@@H]1CC[C@]2(C(=O)NCCN3CCCCC3)CC[C@]3(C)[C@H](CC[C@@H]4[C@@]5(C)CC=C(c6ccc(C(=O)O)cc6)C(C)(C)[C@@H]5CC[C@]43C)[C@@H]12 [Example 33]	< 100 nM
C=C(C)[C@@H]1CC[C@]2(C(=O)NCCN3CCNC(=O)C3)CC[C@]3(C)[C@H](CC[C@@H]4[C@@]5(C)CC=C(c6ccc(C(=O)O)cc6)C(C)(C)[C@@H]5CC[C@]43C)[C@@H]12 [Example 108]	< 100 nM
